B1: Osa-1-4 twister ribozyme (parent)
chain: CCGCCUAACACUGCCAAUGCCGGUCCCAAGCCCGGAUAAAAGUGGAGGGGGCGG

Variants of: B1
Test: self-cleavage, relative activity (ratio to wild type); higher = more cleavage; co-transcriptional
Property Measured: self-cleavage

Here is how some variants turned out for self-cleavage.
# Variant Name, self-cleavage
data = [
    ("A46G U24C", 0.04),
    ("A40G C25G", 0.06),
    ("C14U G19A", 0.09),
    ("A16C A38U", 1.01),
    ("A10U C21A", 0.03),
]

Look up self-cleavage: G22U U24G
0.07

Data origin, for the record: the RNAGym collection of RNA variant scans (doi:10.1002/anie.201605470)
